- Test system: AsPC-1 cells
- Assay protocol: AsPC-1 CTG proliferation assay (120 h) (pancreatic cancer, G12D)
- Assay type: cell-based
- Condition: Homo sapiens, ASPC1
pIC50: −log10 of the molar value.
Test readout: pIC50

[
  {
    "Chem smiles": "C[C@H](Oc1cc(-c2ccn(C[C@@H](C)O)n2)nc(-c2onc3c2CCC[C@@]32CCCc3sc(N)c(C#N)c32)n1)[C@@H]1CCCN1C",
    "pIC50": 5.34
  }
]

[a] C[C@H](Oc1cc(-n2cc3c(n2)CN(C)C3)nc(-c2noc3c2CCC[C@@]32CCCc3sc(N)c(C#N)c32)n1)[C@@H]1CCCN1C
[b] C[C@H](Oc1cc(-c2cn(C3COC3)nn2)nc(-c2noc3c2CCC[C@@]32CCCc3sc(N)c(C#N)c32)n1)[C@@H]1CCCN1C
Prompt: For the pair a and b , which entry has the numerically smaller recorded pIC50? I would appreciate it if you answered with the label of your choice.
Completion: b

[P] C[C@H](Oc1cc(N2C[C@H](C)N(C)[C@@H](C)C2)nc(-c2noc3c2CCC[C@@]32CCCc3sc(N)c(C#N)c32)n1)[C@@H]1CCCN1C
[Q] C[C@H](Oc1cc(N2CCNC3(CC3)C2)nc(-c2onc3c2CCC[C@@]32CCCc3sc(N)c(C#N)c32)n1)[C@@H]1C[C@@H](F)CN1C
[R] C[C@H](Oc1cc(-n2cc3ccn(C[C@H]4CCOC4)c(=O)c3n2)nc(-c2noc3c2CCC[C@@]32CCCc3sc(N)c(C#N)c32)n1)[C@@H]1CCCN1C
[S] C[C@H](Oc1cc(C2CCOCC2)nc(-c2noc3c2CCC[C@@]32CCCc3sc(N)c(C#N)c32)n1)[C@@H]1CCCN1C
Prompt: Rank by pIC50 (largest to smallest). Response field: labels, in requested order.
Completion: Q, R, P, S
(Q: 7.49, R: 6.29, P: 5.92, S: 5.40)

====

- Assay protocol: Metabolic (microsomal) stability assay, human liver microsomes (HLM)
- Format: in vitro ADME
- Condition: predicted clearance as percent of liver blood flow, 1 μM
Test readout: HLM QH

Prompt: So what's the measured HLM QH for this one? CNC1CCN(c2cc(O[C@@H](C)[C@@H]3CCCN3C)nc(-c3noc4c3CCC[C@@]43CCCc4sc(N)c(C#N)c43)n2)CC1
Completion: <24%

====

- Test system: NCI-H2122 cells
- Assay protocol: NCI-H2122 CTG proliferation assay (120 h) (NSCLC, G12C)
- Type: cell-based
- Condition: Homo sapiens
Test readout: IC50 (µM)

[
  {
    "Molecule": "C[C@H]1CN(C)CCCN1c1cc(N2CC[C@H](N(C)C)C2)nc(-c2noc3c2CCC[C@@]32CCCc3sc(N)c(C#N)c32)n1 [II-16]",
    "Unit name": "µM",
    "IC50": 3.53
  },
  {
    "Molecule": "C[C@H](Oc1cc(N2CCCC3(COC3)C2)nc(-c2noc3c2CCC[C@@]32CCCc3sc(N)c(C#N)c32)n1)[C@@H]1CCCN1C [II-72]",
    "Unit name": "µM",
    "IC50": 2.25
  },
  {
    "Molecule": "C[C@H](Oc1cc(-c2cn[nH]c2)nc(-c2noc3c2CCC[C@@]32CCCc3sc(N)c(C#N)c32)n1)[C@@H]1CCCN1C [II-87]",
    "Unit name": "µM",
    "IC50": 1.99
  }
]

[A] C[C@H](Oc1cc(N2Cc3cnn(C)c3C2)nc(-c2onc3c2CCC[C@@]32CCCc3sc(N)c(C#N)c32)n1)[C@@H]1CCCN1C [I-19]
[B] C[C@H](Oc1cc(N2C[C@@H]3[C@@H](N)[C@@H]3C2)nc(-c2noc3c2CCC[C@@]32CCCc3sc(N)c(C#N)c32)n1)[C@@H]1CCCN1C [II-167]
[C] C[C@H](Oc1cc(-n2ccc(C(N)=O)n2)nc(-c2noc3c2CCC[C@@]32CCCc3sc(N)c(C#N)c32)n1)[C@@H]1CCCN1C [II-21]
Prompt: # rank by IC50, ascending (min first) Answer by listing the labels in the requested order.
Completion: C, A, B
(C: 0.128 µM, A: 2.71 µM, B: 9.79 µM)

====

- Assay protocol: Metabolic (microsomal) stability assay, human liver microsomes (HLM)
- Type: in vitro ADME
- Condition: predicted clearance as percent of liver blood flow, 1 μM
Test readout: HLM QH (%)

Past entries and their recorded results:
[
  {
    "Compound": "C[C@H](Oc1cc(C2COCCO2)nc(-c2noc3c2CCC[C@@]32CCCc3sc(N)c(C#N)c32)n1)[C@@H]1CCCN1C (stereo partly drawn)",
    "Result": 37
  },
  {
    "Compound": "CO[C@H]1CCN(C)[C@@H]1[C@H](C)Oc1cc(-n2ccc(C(=O)N[C@H]3CCOC3)n2)nc(-c2onc3c2CCC[C@@]32CCCc3sc(N)c(C#N)c32)n1",
    "Result": 52
  },
  {
    "Compound": "CO[C@H]1CCN(C)[C@@H]1[C@H](C)Oc1cc(-n2ccc(CC(=O)NC(C)C)n2)nc(-c2noc3c2CCC[C@@]32CCCc3sc(N)c(C#N)c32)n1",
    "Result": 75
  },
  {
    "Compound": "Cc1nccn1-c1cc(O[C@@H](C)[C@@H]2CCCN2C)nc(-c2noc3c2CCC[C@@]32CCCc3sc(N)c(C#N)c32)n1",
    "Result": 45
  }
]

[a] C[C@H](Oc1cc(-n2ccsc2=O)nc(-c2noc3c2CCC[C@@]32CCCc3sc(N)c(C#N)c32)n1)[C@@H]1CCCN1C
[b] C[C@H](Oc1cc(-n2cc(-c3cccnc3)nn2)nc(-c2noc3c2CCC[C@@]32CCCc3sc(N)c(C#N)c32)n1)[C@@H]1CCCN1C
Prompt: I'd appreciate it if you could identify which of a and b has the greater HLM QH. Lab log: write the label of the selected item as the result.
Completion: a

====

- Target of assay: KRAS (G12C)::SOS1 (Homo sapiens (Human), UniProt P01116, C118S/C51S/C80L/G12C)
- Sequence (P01116 other isoform, or with tags, fused parts or gaps G12C/C51S/C80L/C118S): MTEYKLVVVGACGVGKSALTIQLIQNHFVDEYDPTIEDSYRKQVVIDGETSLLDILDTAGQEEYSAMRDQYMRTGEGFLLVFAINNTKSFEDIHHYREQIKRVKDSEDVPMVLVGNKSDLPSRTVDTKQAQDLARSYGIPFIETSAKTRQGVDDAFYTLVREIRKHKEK
- Assay protocol: KRAS::SOS1 AlphaScreen binding assay, KRAS G12C
Test readout: IC50 (nM)

[a] C[C@H](Oc1cc(N2CCN(C)C3(CC3)C2)nc(-c2noc3c2CCC[C@@]32CCCc3sc(N)c(C#N)c32)n1)[C@@H]1CCCN1C [II-171]
[b] C[C@H](Oc1cc(-n2cc(C3CC3)nn2)nc(-c2noc3c2CCC[C@@]32CCCc3sc(N)c(C#N)c32)n1)[C@@H]1CCCN1C [II-118]
[c] C[C@H](Oc1cc(-n2cc3ccn(C[C@H]4CCOC4)c(=O)c3n2)nc(-c2noc3c2CCC[C@@]32CCCc3sc(N)c(C#N)c32)n1)[C@@H]1CCCN1C [II-204]
Prompt: Which order do these items fall in when sorted by IC50 from largest to smallest? The labels, placed in the requested order, form the answer.
Completion: a, b, c
(a: 5 nM, b: 2 nM, c: 1 nM)

====

- Assay protocol: Solubility measurement (DMSO solution method), McIlvaine buffer pH 4.5 or 6.8
- Assay type: physicochemical
- Condition: aqueous buffer, kinetic from dmso stock; McIlvaine buffer pH 4.5; DMSO stock diluted to 250 μM; 24 h shaking at ambient temperature; read-out: solubility pH 4.5
# solubility at 24 h per entry

[
  {
    "Chem smiles": "C[C@H](Oc1cc(-n2ccc(C(=O)N(C)C3COC3)n2)nc(-c2noc3c2CCC[C@@]32CCCc3sc(N)c(C#N)c32)n1)[C@@H]1CCCN1C",
    "Test readout": "solubility at 24 h",
    "Result": "116 µg/mL"
  },
  {
    "Chem smiles": "C[C@H](Oc1cc(N2CCN(CCO)CC2)nc(-c2noc3c2CCC[C@@]32CCCc3sc(N)c(C#N)c32)n1)[C@@H]1CCCN1C",
    "Test readout": "solubility at 24 h",
    "Result": "> 141 µg/mL"
  }
]

Prompt: For C[C@H](Oc1cc(-n2cc3c(n2)CNC3)nc(-c2noc3c2CCC[C@@]32CCCc3sc(N)c(C#N)c32)n1)[C@@H]1C[C@@H](F)CN1C , what is its reported solubility at 24 h?
Completion: > 144 µg/mL

====

- Assay protocol: Caco-2 assay (permeability PappAB, PappBA, efflux ratio)
- Format: in vitro ADME
- Condition: human, Caco-2; apical to basolateral; 10 μM test compound, pH 7.4
Test readout: Papp A→B at 90 min, 10 μM (×10⁻⁶ cm/s)

Worked cases, Papp A→B at 90 min, 10 μM given:
[
  {
    "Chem smiles": "C[C@H](Oc1cc(-c2ccn(CC(C)(C)O)n2)nc(-c2onc3c2CCC[C@@]32CCCc3sc(N)c(C#N)c32)n1)[C@@H]1CCCN1C",
    "Unit name": "×10⁻⁶ cm/s",
    "Result": 3
  },
  {
    "Chem smiles": "C[C@H](Oc1nc(-c2noc3c2CCC[C@@]32CCCc3sc(N)c(C#N)c32)cc(N2C[C@H](C)N[C@@H](C)C2)n1)[C@@H]1CCCN1C",
    "Unit name": "×10⁻⁶ cm/s",
    "Result": 0.8
  },
  {
    "Chem smiles": "C[C@H](Oc1cc(-c2ccn([C@H]3CCOC3)n2)nc(-c2noc3c2CCC[C@@]32CCCc3sc(N)c(C#N)c32)n1)[C@@H]1CCCN1C",
    "Unit name": "×10⁻⁶ cm/s",
    "Result": 5.9
  }
]

[1] C[C@H](Oc1cc(-n2ccc(C3(O)COC3)n2)nc(-c2noc3c2CCC[C@@]32CCCc3sc(N)c(C#N)c32)n1)[C@@H]1CCCN1C
[2] C[C@H](Oc1cc(-c2cc[nH]n2)nc(-c2noc3c2CCC[C@@]32CCCc3sc(N)c(C#N)c32)n1)[C@@H]1CCCN1C
Prompt: Hey, which is lower on measured Papp A→B at 90 min, 10 μM, 1 or 2 ? Use the label to indicate which entry you chose.
Completion: 2
